# assay explanation: qHTS assay to identify small molecule agonists of the NFkB signaling pathway - cell viability counter screen (AID 1159515); further: nearly all actives have a fitted effect of over 55% in size
# experimental setup: NFkB-bla ME-180 viability, CellTiter-Glo luminescence, 5 h; series mostly up to 61 µM
Inconclusive results are not listed. Active and inactive are the calls of the source. The call rests on the fitted dose curve.
Thanks in advance; please answer with one of these: active, inactive

Worked examples follow.
COCCCC/C(=N\OCCN)c1ccc(C(F)(F)F)cc1	inactive
CCCCN1C(=O)[C@@H]([C@H](O)C2CCCCC2)NC(=O)C12CCN(Cc1ccc(Oc3ccc(C(=O)O)cc3)cc1)CC2	inactive
CCCC(c1cc(C(C)(C)C)c(O)cc1C)c1cc(C(C)(C)C)c(O)cc1C	active
CCCCCCCCCCCC(=O)NCCCN(C)C	active

Q: Per the assay record, what outcome was assigned to "OCCN1CCN(CC/C=C2/c3ccccc3Sc3ccc(C(F)(F)F)cc32)CC1" ?
Ans: active

Q: Per the assay record, what outcome was assigned to "O=C(Oc1cccc2cccnc12)c1ccccc1" ?
Ans: active

Q: Per the assay record, what outcome was assigned to "Nc1c2ccccc2nc2ccccc12" ?
Ans: inactive

Q: Per the assay record, what outcome was assigned to "Oc1cccc(-c2c3nc(c(-c4cccc(O)c4)c4ccc([nH]4)c(-c4cccc(O)c4)c4nc(c(-c5cccc(O)c5)c5ccc2[nH]5)CC4)C=C3)c1" ?
Ans: inactive

Q: Per the assay record, what outcome was assigned to "Cc1onc(-c2c(Cl)cccc2Cl)c1C(=O)N[C@@H]1C(=O)N2[C@@H]1SC(C)(C)[C@@H]2C(=O)O" ?
Ans: inactive

Q: Per the assay record, what outcome was assigned to "O=Cc1cc(O)ccc1Br" ?
Ans: inactive

Q: Per the assay record, what outcome was assigned to "Oc1ccc2cc(SSc3ccc4cc(O)ccc4c3)ccc2c1" ?
Ans: inactive

Q: Per the assay record, what outcome was assigned to "CN(C/C=C/C#CC(C)(C)C)Cc1cccc2ccccc12" ?
Ans: active

Q: Per the assay record, what outcome was assigned to "CC1(C)CCC(C)(C)c2cc(C(=O)Nc3ccc(C(=O)O)cc3)ccc21" ?
Ans: inactive

Q: Per the assay record, what outcome was assigned to "CC1=C(/C=C/C(C)=C/C=C/C(C)=C/C=O)C(C)(C)CCC1" ?
Ans: active
